ASSAY TARGET: Neuronal acetylcholine receptor subunit alpha-4 (Homo sapiens, UniProt P43681); note: assay procedure not described here
Sequence (P43681 whole entry): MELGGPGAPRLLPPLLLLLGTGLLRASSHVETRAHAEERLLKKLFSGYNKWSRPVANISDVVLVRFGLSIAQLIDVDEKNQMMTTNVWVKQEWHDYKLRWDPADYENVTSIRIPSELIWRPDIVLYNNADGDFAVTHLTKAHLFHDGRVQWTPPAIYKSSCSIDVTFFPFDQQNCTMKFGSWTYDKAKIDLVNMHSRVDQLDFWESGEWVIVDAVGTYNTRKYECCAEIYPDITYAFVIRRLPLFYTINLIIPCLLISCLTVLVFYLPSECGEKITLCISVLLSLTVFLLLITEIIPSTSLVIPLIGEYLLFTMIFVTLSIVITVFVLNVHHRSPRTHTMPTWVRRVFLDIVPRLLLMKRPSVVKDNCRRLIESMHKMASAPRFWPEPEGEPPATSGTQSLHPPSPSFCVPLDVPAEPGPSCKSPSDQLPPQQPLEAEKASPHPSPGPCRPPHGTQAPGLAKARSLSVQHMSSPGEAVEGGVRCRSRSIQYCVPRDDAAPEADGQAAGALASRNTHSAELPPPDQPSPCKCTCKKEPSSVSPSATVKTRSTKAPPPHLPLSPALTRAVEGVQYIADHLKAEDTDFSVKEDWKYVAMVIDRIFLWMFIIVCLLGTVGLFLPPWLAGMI
Attribute: AC50
MEASURED METRIC: AC50

1. Cc1ccc(NC(=O)C2(c3ccc4c(c3)OC(F)(F)O4)CC2)nc1-c1cccc(C(=O)O)c1 :: > 30 µM
2. CCN(CC)CCOC(=O)c1ccc(N)cc1Cl :: 25 µM
3. NC(=O)c1ncn([C@@H]2O[C@H](CO)[C@@H](O)[C@H]2O)n1 :: > 10 µM
4. Nc1nc(O)c2ncn(COC(CO)CO)c2n1 :: > 30 µM
5. C#C[C@]1(O)CC[C@H]2[C@@H]3CCc4cc(OC)ccc4[C@H]3CC[C@@]21C :: > 10 µM
6. O=C1CN=C(c2ccccc2)c2cc(Cl)ccc2N1 :: > 10 µM
7. CS(=O)(=O)OCCCCOS(C)(=O)=O :: > 30 µM
8. C=C[C@@]1(C)CC(=O)[C@]2(O)[C@@]3(C)[C@@H](O)CCC(C)(C)[C@@H]3[C@H](OC(=O)CCN(C)C)[C@H](OC(C)=O)[C@@]2(C)O1 :: > 30 µM
9. NS(=O)(=O)c1cc2c(cc1C(F)(F)F)NC(Cc1ccccc1)NS2(=O)=O (stereo not drawn) [BENDROFLUMETHIAZIDE] :: > 10 µM
10. NS(=O)(=O)c1cc(C2(O)NC(=O)c3ccccc32)ccc1Cl (stereo not drawn) :: > 10 µM
11. Nc1ccn([C@@H]2O[C@H](CO)[C@@H](O)C2(F)F)c(=O)n1 :: > 10 µM
12. CCCCCCNC(=O)n1cc(F)c(=O)[nH]c1=O :: > 30 µM
13. O=C(O)c1ccccc1Nc1cccc(C(F)(F)F)c1 :: > 10 µM
14. Clc1cccc(Cl)c1N=C1NCCN1 :: > 10 µM
15. CCC(C)(Oc1ccc(C2(c3ccc(OC(C)(CC)C(=O)O)cc3)CCCCC2)cc1)C(=O)O (stereo not drawn) [CLINOFIBRATE] :: > 30 µM
16. CCN(CC)C(=O)C1CN2CCc3cc(OC)c(OC)cc3C2CC1OC(C)=O (stereo not drawn) [BENZQUINAMIDE] :: > 30 µM
17. CC(=O)Oc1ccccc1C(=O)Nc1ncc([N+](=O)[O-])s1 [NITAZOXANIDE] :: 8.8 µM
18. CC1(C)C(C=C(Cl)Cl)C1C(=O)OCc1cccc(Oc2ccccc2)c1 (stereo not drawn) :: > 10 µM
